measured on: human aromatase (Homo sapiens, UniProt P11511)
Construct: purchased BioVision, Milpitas, CA, USA
Sequence (P11511 1-503): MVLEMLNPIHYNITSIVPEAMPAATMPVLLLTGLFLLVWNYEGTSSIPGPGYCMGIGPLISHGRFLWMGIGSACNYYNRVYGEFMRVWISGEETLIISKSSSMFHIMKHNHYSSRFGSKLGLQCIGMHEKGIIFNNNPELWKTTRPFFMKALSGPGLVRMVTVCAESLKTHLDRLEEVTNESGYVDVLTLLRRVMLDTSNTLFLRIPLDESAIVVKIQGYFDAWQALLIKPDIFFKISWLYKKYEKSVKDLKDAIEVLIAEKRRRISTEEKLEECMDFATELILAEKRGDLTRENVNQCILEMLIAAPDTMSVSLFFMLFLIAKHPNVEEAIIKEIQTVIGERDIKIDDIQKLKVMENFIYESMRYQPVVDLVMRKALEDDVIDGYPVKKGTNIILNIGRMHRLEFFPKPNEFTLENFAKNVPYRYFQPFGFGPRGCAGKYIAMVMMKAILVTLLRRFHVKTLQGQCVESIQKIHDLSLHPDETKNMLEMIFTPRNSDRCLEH
protocol notes: Aromatase inhibition, fluorimetric assay kit (Aromatase-CYP19A Inhibitor Screening kit, BioVision)
Format: biochemical
property name: inhibition at 1 µM (%)

The examples below pair each entry with its known result.
O=S(=O)(Oc1ccc(/C=C/c2ccccc2)cc1)c1ccc(Cl)s1 [1k] = 60.3
Cc1ccc(S(=O)(=O)Nc2ccc(/C=C/c3ccccc3)cc2)cc1[N+](=O)[O-] [2c] = 44.8
Cc1ccc(S(=O)(=O)Oc2ccc(/C=C/c3ccccc3)cc2)cc1[N+](=O)[O-] [1c] = 91
O=[N+]([O-])c1cccc(S(=O)(=O)Nc2ccc(/C=C/c3ccccc3)cc2)c1 [2b] = 67.3

(I) O=[N+]([O-])c1cccc(S(=O)(=O)Oc2ccc(/C=C/c3ccccc3)cc2)c1 [1b]
(II) O=S(=O)(Nc1ccc(/C=C/c2ccccc2)cc1)c1ccccc1 [2a]
INPUT: Input pair: I , II . Output: entry with lower inhibition at 1 µM. Could you answer with the label of the item you picked?
OUTPUT: II
(II: 47.8%, I: 97%)

(A) CCS(=O)(=O)Oc1ccc(/C=C/c2ccccc2)cc1 [1i]
(B) N#Cc1ccc(S(=O)(=O)Oc2ccc(/C=C/c3ccccc3)cc2)cc1 [1e]
INPUT: Of the two listed items, which has the higher inhibition at 1 µM? First: A Second: B State your choice using its label.
OUTPUT: A

* * *

Readings of Viability (% of control) - 72 h for the listed compounds
System: MCF7 breast cancer cell line
protocol notes: Cell metabolic activity / viability (MTT assay) on MCF7;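 note: MTT optical density read-out in human MCF7 cells, normalised to DMSO vehicle-treated cells as 100%, with IC50 derived from fitted concentration–response curves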
Assay type: cell-based, human
condition parameters: MCF7, 250 µM, 72 h

O=[N+]([O-])c1cccc(S(=O)(=O)Oc2ccc(/C=C/c3ccccc3)cc2)c1 = 57.01 ± 1.01 % of control
O=S(=O)(Cc1ccccc1)Oc1ccc(/C=C/c2ccccc2)cc1 = 69.54 ± 4.11 % of control

INPUT: Consider the compound Oc1ccc(/C=C/c2cc(O)cc(O)c2)cc1 [RSV, trans-3,4′,5-trihydroxystilbene, reference compound] and give its measured Viability (% of control) - 72 h.
OUTPUT: 38.05 ± 8.70 % of control

INPUT: And then `Cc1ccc(S(=O)(=O)Oc2ccc(/C=C/c3ccccc3)cc2)cc1[N+](=O)[O-]` , what is it?
OUTPUT: 38.30 ± 4.07 % of control
